Readout Name: AC50

Summary line: CCC(C)n1ncn(-c2ccc(N3CCN(c4ccc(OCC5COC(Cn6cncn6)(c6ccc(Cl)cc6Cl)O5)cc4)CC3)cc2)c1=O (stereo unspecified) , Sodium-dependent noradrenaline transporter (Homo sapiens), reported AC50 = > 30 µM

Summary line: CN(C)CCc1c[nH]c2ccc(C[C@H]3COC(=O)N3)cc12 , Sodium-dependent noradrenaline transporter (Homo sapiens), reported AC50 = > 30 µM

Summary line: CCc1c(Cl)c(O)c(Cl)c(O)c1C(=O)O[C@H]1[C@H](O)[C@H](OC)[C@H](OC/C2=C\C=C\C[C@H](O)/C(C)=C/[C@H](CC)[C@@H](O[C@@H]3OC(C)(C)[C@@H](OC(=O)C(C)C)[C@H](O)[C@@H]3O)/C(C)=C/C(C)=C/C[C@@H]([C@@H](C)O)OC2=O)O[C@@H]1C , Sodium-dependent noradrenaline transporter (Homo sapiens), reported AC50 = > 30 µM

Summary line: CO/N=C(\C(=O)N[C@@H]1C(=O)N2C(C(=O)O)=C(CSc3nnnn3C)CS[C@H]12)c1csc(N)n1 , Sodium-dependent noradrenaline transporter (Homo sapiens), reported AC50 = > 30 µM

Summary line: COc1cc2c(N)nc(N3CCN(C(=O)OCC(C)(C)O)CC3)nc2c(OC)c1OC , Sodium-dependent noradrenaline transporter (Homo sapiens), reported AC50 = > 30 µM

Summary line: CC(C(=O)O)c1ccc(N2Cc3ccccc3C2=O)cc1 (stereo unspecified) , Sodium-dependent noradrenaline transporter (Homo sapiens), reported AC50 = > 30 µM
